biological target: cloned human δ opioid receptor (Homo sapiens, UniProt P41143); construct: expressed in transfected cells; assay: [3H]diprenorphine binding to cloned human δ opioid receptor; settings: inhibition of [3H]diprenorphine binding, cloned human δ receptor; read-out: Ki(δ)
Sequence (P41143 whole entry): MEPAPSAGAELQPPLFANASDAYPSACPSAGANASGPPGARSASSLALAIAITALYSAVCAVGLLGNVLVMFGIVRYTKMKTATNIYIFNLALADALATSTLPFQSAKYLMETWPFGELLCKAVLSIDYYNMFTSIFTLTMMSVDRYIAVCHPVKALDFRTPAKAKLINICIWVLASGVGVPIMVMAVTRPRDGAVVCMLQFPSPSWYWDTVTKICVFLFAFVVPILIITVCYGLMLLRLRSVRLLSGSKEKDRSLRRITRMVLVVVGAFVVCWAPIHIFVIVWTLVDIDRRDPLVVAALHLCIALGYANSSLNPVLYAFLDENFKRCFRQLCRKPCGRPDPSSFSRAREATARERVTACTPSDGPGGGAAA
Structures can show the parent of a compound that is named as a salt.
reported metric: Ki (nM)
Hi! Could you send only the number? It should be in nM, unit omitted.

1. CC(C)S(=O)(=O)NCc1ccc(CC(=O)N(C)[C@H](CN2CC[C@H](O)C2)c2ccccc2)cc1.Cl [Example 15, hydrochloride]
470
2. CN(C(=O)Cc1cccc(CNS(C)(=O)=O)c1)[C@H](CN1CCCC1)c1ccccc1 [Example 11, hydrochloride]
1500
3. CN(C(=O)Cc1ccc(CCCNS(C)(=O)=O)cc1)[C@H](CN1CC[C@H](O)C1)c1ccccc1.Cl [Example 27, hydrochloride]
240
4. CN(C(=O)Cc1ccc(CNS(=O)(=O)c2ccccc2)cc1)[C@H](CN1CC[C@H](O)C1)c1ccccc1 [Example 18, hydrochloride]
83

// lookup Ki | system=cloned human δ opioid receptor (Homo sapiens, UniProt P41143) | key= CCS(=O)(=O)NCc1ccc(CC(=O)N(C)[C@H](CN2CC[C@H](O)C2)c2ccccc2)cc1.Cl [Example 14, hydrochloride]
510
